Source listed as patent US12264159B2.

Each entry below lists one item and its recorded pEC50 value.
System: HBV in 2.2.15 cells
test-protocol: 2.2.15 cells: viral product in cell lysates quantified via quantitative real time PCR
Format: cell-based, hepatitis B virus (HBV)
condition-notes: Hepatitis B virus, 120 h, day 5 post treatment, 50% reduction of viral product vs no drug controls, readout (qPCR, HBsAg or HBeAg) not specified for the column
pEC50: −log10 of the molar value.
experimental-readout: pEC50

                             chemical_string      reported
 0  CC(C)[C@@H]1Cn2nc(-c3ccnnc3)c(-c3ccnnc3)c2-c2cc(=O)c(C(=O)O)cn21  6.00 to 6.70
 1  C[C@@H]1Cn2nc(-c3ccc(F)cc3)c(-c3ccc(F)cc3)c2-c2cc(=O)c(C(=O)O)cn21        > 7.00
 2  CC(C)(C)[C@@H]1Cn2ncc(-c3ccc(F)cc3)c2-c2cc(=O)c(C(=O)O)cn21        > 7.00
 3  CC(C)(C)[C@@H]1Cn2nc(-c3cnco3)cc2-c2cc(=O)c(C(=O)O)cn21  6.00 to 6.70
 4  CC(C)[C@@H]1Cn2nc(C3CC3)c(-c3cccnc3)c2-c2cc(=O)c(C(=O)O)cn21        > 7.00
 5  CC(C)(C)[C@@H]1Cn2ncc(-c3ccc4c(c3F)OCO4)c2-c2cc(=O)c(C(=O)O)cn21        > 7.00
 6  COc1ccc(-c2cc3n(n2)C[C@@H](C(C)(C)C)n2cc(C(=O)O)c(=O)cc2-3)cc1        > 7.00
 7  CC(C)(C)[C@@H]1Cn2nc(C3CC3)c(-c3ccccc3O)c2-c2cc(=O)c(C(=O)O)cn21        > 7.00
 8  CC(C)(C)[C@@H]1Cn2ncc(-c3cccc(OC(F)(F)F)c3)c2-c2cc(=O)c(C(=O)O)cn21        > 7.00
 9  CC(C)(C)[C@@H]1Cn2nc(-c3cccc4occc34)cc2-c2cc(=O)c(C(=O)O)cn21        > 7.00
10  CC(C)(C)[C@@H]1Cn2ncc(-c3cncs3)c2-c2cc(=O)c(C(=O)O)cn21        > 7.00
11  CC(C)(C)[C@@H]1Cn2nc(-c3ccc4c(c3)OCCO4)cc2-c2cc(=O)c(C(=O)O)cn21        > 7.00
12  CC(C)(C)[C@@H]1Cn2nc(C3CC3)c(-c3ccccc3F)c2-c2cc(=O)c(-c3ncn[nH]3)cn21        > 7.00
13  CC(C)(C)[C@@H]1Cn2ncc(-c3ccc(OC(F)(F)F)cc3)c2-c2cc(=O)c(C(=O)O)cn21        < 6.00
14  CC(C)(C)[C@@H]1Cn2nc(-c3ccc(F)cc3)cc2-c2cc(=O)c(C(=O)O)cn21        > 7.00

###

Each entry below lists one item and its recorded EC50 value.
System: HBV in 2.2.15 cells
test-protocol: 2.2.15 cells: viral product in cell lysates quantified via quantitative real time PCR
Assay type: cell-based, hepatitis B virus (HBV)
condition-notes: Hepatitis B virus, 120 h, day 5 post treatment, 50% reduction of viral product vs no drug controls, readout (qPCR, HBsAg or HBeAg) not specified for the column
experimental-readout: EC50

                            chemical_string  experimental_readout  reported
0  CC(C)(C)[C@@H]1Cn2nc(-c3ccc(F)c(F)c3)cc2-c2cc(=O)c(C(=O)O)cn21                  EC50  < 100 nM
1  COc1ccccc1-c1cnn2c1-c1cc(=O)c(C(=O)O)cn1[C@H](C(C)(C)C)C2                  EC50  < 100 nM
2  CC(C)(C)[C@@H]1Cn2nc(-c3ccc(F)cc3)c(Cl)c2-c2cc(=O)c(C(=O)O)cn21                  EC50  < 100 nM
3  CC(C)(C)[C@@H]1Cn2nc(-c3ccc4c(c3F)OCO4)cc2-c2cc(=O)c(C(=O)O)cn21                  EC50  < 100 nM
